The reported numbers originate from patent EP2093288A1.

Property: Relative activity (%); scope: individual molecules
- System: dipeptide-degrading enzyme
- ASSAY OVERVIEW: Influence of metal ions and the like on enzymatic activity (dipeptide-degrading activity, Example 3 method)
- Assay type: biochemical, Sphingopyxis chilensis No. 0522
- STATED CONDITIONS: Conc. 2mM; 100 mM PIPES buffer (pH 6.2), 0.1% Triton X-100; None = 100
MEASUREMENT KIND: Relative activity (%)

[[record]]
molecule = "c1cnc2c(c1)ccc1cccnc12"
endpoint_value = 0

[[record]]
molecule = "O=C(O)CS"
endpoint_value = 3

[[record]]
molecule = "O=S(=O)(F)Cc1ccccc1"
endpoint_value = 97

[[record]]
molecule = "O=P1([O-])OP(=O)([O-])OP(=O)([O-])OP(=O)([O-])OP(=O)([O-])OP(=O)([O-])O1.[Na+].[Na+].[Na+].[Na+].[Na+].[Na+] [Sodium Hexametaphosphate]"
endpoint_value = 4

[[record]]
molecule = "CCCCCCCCCCCCOS(=O)(=O)O"
endpoint_value = 9

[[record]]
molecule = "c1ccc(-c2ccccn2)nc1"
endpoint_value = 1

[[record]]
molecule = "OCCS"
endpoint_value = 11


----------
- System: dipeptide-degrading enzyme
- ASSAY OVERVIEW: Influence of metal ions and the like on enzymatic activity (dipeptide-degrading activity, Example 3 method)
- Type: biochemical, Sphingopyxis chilensis No. 0522
- STATED CONDITIONS: Conc. 1mM; 100 mM PIPES buffer (pH 6.2), 0.1% Triton X-100; None = 100
MEASUREMENT KIND: Relative activity (%)

[[record]]
record_smiles = "[Cl][Cu][Cl]"
units_text = "%"
endpoint_value = 75

[[record]]
record_smiles = "[Cl-].[Cl-].[Mg+2]"
units_text = "%"
endpoint_value = 261

[[record]]
record_smiles = "[Cl-].[Cl-].[Zn+2]"
units_text = "%"
endpoint_value = 257

[[record]]
record_smiles = "[Cl-].[Cl-].[Co+2]"
units_text = "%"
endpoint_value = 676

[[record]]
record_smiles = "[Cl][Mn][Cl]"
units_text = "%"
endpoint_value = 137

[[record]]
record_smiles = "[Ba+2].[Cl-].[Cl-]"
units_text = "%"
endpoint_value = 105

[[record]]
record_smiles = "[Ca+2].[Cl-].[Cl-]"
units_text = "%"
endpoint_value = 162

[[record]]
record_smiles = "[Cl][Ni][Cl]"
units_text = "%"
endpoint_value = 156

